assay: Plasma concentration in Wistar rat lambda carrageenan-induced pleurisy model at 10 mg/kg, ip pretreated for 30 mins followed by lambda carrageenan-challenge measured after 4 hrs by SPE-HPLC analysis; type: ADME, organism-based; design: dose 10 mg/kg, route intraperitoneal
QUANTITY: concentration at 4 h (ng/mL)
Respond numerically; units are ng/mL and should not be typed.

- MOLECULE: "CS(=O)(=O)Nc1ccncc1Nc1cccc(Cl)c1"
  QUANTITY: "concentration at 4 h"
  OBSERVED_RESULT: 690
- MOLECULE: "O=S(=O)(Nc1ccncc1Nc1ccc(F)c(Cl)c1)C(F)(F)F"
  QUANTITY: "concentration at 4 h"
  OBSERVED_RESULT: 30000
- MOLECULE: "O=S(=O)(Nc1ccncc1Nc1ccc(Cl)cc1)C(F)(F)F"
  QUANTITY: "concentration at 4 h"
  OBSERVED_RESULT: 9490
- MOLECULE: "O=S(=O)(Nc1ccncc1Nc1ccc(F)c(Br)c1)C(F)(F)F"
  QUANTITY: "concentration at 4 h"
  OBSERVED_RESULT: 34100

Input: Would you kindly share the measured concentration at 4 h for Cc1ccc(-c2cc(C(F)(F)F)nn2-c2ccc(S(N)(=O)=O)cc2)cc1 [CELECOXIB] ?
Output: 1130

Input: Cool, now Cc1ccc(Nc2cnccc2NS(=O)(=O)C(F)(F)F)cc1Br
Output: 180

###

test system: Rattus norvegicus; assay: Antiinflammatory activity in Wistar rat lambda carrageenan-induced pleurisy model assessed as decrease in exudate volume at 5 mg/kg, ip pretreated for 30 mins followed by lambda carrageenan-challenge measured after 4 hrs relative to control; assay type: functional; conditions: route intraperitoneal
QUANTITY: inhibition in vivo at 5 mg/kg (%)
Respond numerically; units are % and should not be typed.

Before answering, review these 5 worked examples.
- COMPOUND: "Cc1ccc(Nc2cnccc2NS(=O)(=O)C(F)(F)F)cc1Br"
  TARGET_OR_TEST_SYSTEM: "Rattus norvegicus"
  DISPLAY_UNIT: "%"
  inhibition in vivo at 5 mg/kg: 19.4
- COMPOUND: "O=S(=O)(Nc1ccncc1Nc1ccccc1)C(F)(F)F"
  TARGET_OR_TEST_SYSTEM: "Rattus norvegicus"
  DISPLAY_UNIT: "%"
  inhibition in vivo at 5 mg/kg: 25.4
- COMPOUND: "Cc1ccc(-c2cc(C(F)(F)F)nn2-c2ccc(S(N)(=O)=O)cc2)cc1 [CELECOXIB]"
  TARGET_OR_TEST_SYSTEM: "Rattus norvegicus"
  DISPLAY_UNIT: "%"
  inhibition in vivo at 5 mg/kg: 15.7
- COMPOUND: "O=S(=O)(Nc1ccncc1Nc1ccc(F)c(Br)c1)C(F)(F)F"
  TARGET_OR_TEST_SYSTEM: "Rattus norvegicus"
  DISPLAY_UNIT: "%"
  inhibition in vivo at 5 mg/kg: 21.9
- COMPOUND: "O=S(=O)(Nc1ccncc1Nc1ccc(F)c(Cl)c1)C(F)(F)F"
  TARGET_OR_TEST_SYSTEM: "Rattus norvegicus"
  DISPLAY_UNIT: "%"
  inhibition in vivo at 5 mg/kg: 36.6

Input: Would you kindly share the measured inhibition in vivo at 5 mg/kg for CS(=O)(=O)Nc1ccc([N+](=O)[O-])cc1Oc1ccccc1 [NIMESULIDE] ?
Output: 31.1

###

experiment: Plasma concentration in Wistar rat lambda carrageenan-induced pleurisy model at 5 mg/kg, ip pretreated for 30 mins followed by lambda carrageenan-challenge measured after 4 hrs by SPE-HPLC analysis; assay type: ADME, organism-based; design: dose 5 mg/kg, route intraperitoneal
Below, each of the compounds is paired with its reported concentration at 4 h value.
Respond numerically; units are ng/mL and should not be typed.

Before answering, review these 4 worked examples.
- COMPOUND: "Cc1cccc(Nc2cnccc2NS(=O)(=O)C(F)(F)F)c1"
  QUANTITY: "concentration at 4 h"
  OBSERVED_RESULT: 100
- COMPOUND: "O=S(=O)(Nc1ccncc1Nc1ccccc1)C(F)(F)F"
  QUANTITY: "concentration at 4 h"
  OBSERVED_RESULT: 720
- COMPOUND: "Cc1ccc(-c2cc(C(F)(F)F)nn2-c2ccc(S(N)(=O)=O)cc2)cc1 [CELECOXIB]"
  QUANTITY: "concentration at 4 h"
  OBSERVED_RESULT: 620
- COMPOUND: "O=S(=O)(Nc1ccncc1Nc1ccc(F)c(Cl)c1)C(F)(F)F"
  QUANTITY: "concentration at 4 h"
  OBSERVED_RESULT: 13000

Now consider a different compound.
Input: Would you kindly share the measured concentration at 4 h for CS(=O)(=O)Nc1ccc([N+](=O)[O-])cc1Oc1ccccc1 [NIMESULIDE] ?
Output: 17000

###

target: Prostaglandin G/H synthase 1 (Homo sapiens, UniProt P23219)
Sequence (P23219 whole entry): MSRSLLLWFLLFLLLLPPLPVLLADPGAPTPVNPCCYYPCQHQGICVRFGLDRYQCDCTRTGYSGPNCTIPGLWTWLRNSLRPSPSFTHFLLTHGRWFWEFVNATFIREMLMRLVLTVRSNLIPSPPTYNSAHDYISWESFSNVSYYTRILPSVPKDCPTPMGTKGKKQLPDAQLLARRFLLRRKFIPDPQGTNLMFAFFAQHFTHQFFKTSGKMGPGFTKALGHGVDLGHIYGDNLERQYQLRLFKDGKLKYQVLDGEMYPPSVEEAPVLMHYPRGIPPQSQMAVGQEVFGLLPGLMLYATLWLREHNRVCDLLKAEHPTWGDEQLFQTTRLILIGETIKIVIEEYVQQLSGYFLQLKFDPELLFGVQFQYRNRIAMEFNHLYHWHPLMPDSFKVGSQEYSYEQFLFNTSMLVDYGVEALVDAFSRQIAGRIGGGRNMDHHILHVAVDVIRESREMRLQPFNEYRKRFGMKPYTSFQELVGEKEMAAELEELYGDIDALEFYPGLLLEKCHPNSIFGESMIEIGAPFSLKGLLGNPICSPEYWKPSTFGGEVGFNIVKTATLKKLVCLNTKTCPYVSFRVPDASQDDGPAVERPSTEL
Sorting guide: entries reporting IC50 beneath 2000 nM go in the fulfilled pile, the rest go in the not fulfilled pile.

- SMILES_NOTATION: "O=S(=O)(Nc1ccncc1Nc1ccc(F)c(Cl)c1)C(F)(F)F"
  LABEL_CLASS: "fulfilled"

Input: In plain terms, does Cc1ccc(Nc2cnccc2NS(C)(=O)=O)cc1C come in under 2000 nM for IC50?
Output: not fulfilled

Input: Cool, now O=S(=O)(Nc1ccncc1Nc1ccc(F)c(Br)c1)C(F)(F)F
Output: fulfilled

Input: Cool, now O=S(=O)(Nc1ccncc1Nc1cccc(F)c1)C(F)(F)F
Output: fulfilled

Input: Cool, now O=S(=O)(Nc1ccncc1Nc1cccc(I)c1)C(F)(F)F
Output: fulfilled

Input: Cool, now Cc1ccc(Nc2cnccc2NS(=O)(=O)C(F)(F)F)cc1Br
Output: fulfilled

Input: Cool, now Cc1ccc(Nc2cnccc2NS(=O)(=O)C(F)(F)F)cc1Cl
Output: fulfilled

Input: Cool, now O=S(=O)(Nc1ccncc1Nc1ccccc1)C1CC1
Output: not fulfilled

Input: Cool, now O=S(=O)(Nc1ccncc1Nc1ccc(O)cc1)C(F)(F)F
Output: not fulfilled

Input: Cool, now Cc1cc(C)cc(Nc2cnccc2NS(C)(=O)=O)c1
Output: not fulfilled

Input: Cool, now Cc1cc(Nc2cnccc2NS(=O)(=O)C(F)(F)F)ccc1Br
Output: not fulfilled

Input: Cool, now Cc1ccc(Nc2cnccc2NS(=O)(=O)C(F)(F)F)cc1C
Output: fulfilled

###

test: Plasma concentration in Wistar rat lambda carrageenan-induced pleurisy model at 10 mg/kg, ip pretreated for 30 mins followed by lambda carrageenan-challenge measured after 4 hrs by SPE-HPLC analysis; type: ADME, organism-based; parameters: dose 10 mg/kg, route intraperitoneal
Below, each of the compounds is paired with its reported log10(concentration at 4 h) value.
// units: ng/mL (pre-log); metric: concentration at 4 h; scale: log10

- COMPOUND: "O=S(=O)(Nc1ccncc1Nc1ccccc1)C(F)(F)F"
  OBSERVED_RESULT: 3.19
- COMPOUND: "CS(=O)(=O)Nc1ccc([N+](=O)[O-])cc1Oc1ccccc1 [NIMESULIDE]"
  OBSERVED_RESULT: 4.62

Input: Would you kindly share the measured log10(concentration at 4 h) for Cc1cccc(Nc2cnccc2NS(=O)(=O)C(F)(F)F)c1 ?
Output: 2.30

Input: Cool, now O=S(=O)(Nc1ccncc1Nc1cccc(Br)c1)C(F)(F)F
Output: 2.63

Input: Cool, now O=S(=O)(Nc1ccncc1Nc1cccc(Cl)c1)C(F)(F)F
Output: 2.83

###

assay: Plasma concentration in Wistar rat lambda carrageenan-induced pleurisy model at 20 mg/kg, ip pretreated for 30 mins followed by lambda carrageenan-challenge measured after 4 hrs by SPE-HPLC analysis; assay type: ADME, organism-based; design: dose 20 mg/kg, route intraperitoneal
Label rule met when concentration at 4 h is at or above 30000 ng/mL; otherwise label rule not met.

Take a look at these entries with their results.
- MOLECULE: "O=S(=O)(Nc1ccncc1Nc1ccc(Cl)cc1)C(F)(F)F"
  LABEL_CLASS: "rule not met"
- MOLECULE: "Cc1ccc(Nc2cnccc2NS(=O)(=O)C(F)(F)F)cc1Br"
  LABEL_CLASS: "rule not met"
- MOLECULE: "O=S(=O)(Nc1ccncc1Nc1cccc(Cl)c1)C(F)(F)F"
  LABEL_CLASS: "rule not met"
- MOLECULE: "CS(=O)(=O)Nc1ccc([N+](=O)[O-])cc1Oc1ccccc1 [NIMESULIDE]"
  LABEL_CLASS: "rule met"
- MOLECULE: "O=S(=O)(Nc1ccncc1Nc1cccc(Br)c1)C(F)(F)F"
  LABEL_CLASS: "rule not met"

Okay, now this molecule:
Input: Threshold query (concentration at 4 h >= 30000 ng/mL) on O=S(=O)(Nc1ccncc1Nc1ccc(F)c(Br)c1)C(F)(F)F
Output: rule met

###

assay: Plasma concentration in Wistar rat lambda carrageenan-induced pleurisy model at 5 mg/kg, ip pretreated for 30 mins followed by lambda carrageenan-challenge measured after 4 hrs by SPE-HPLC analysis; format: ADME, organism-based; set-up: dose 5 mg/kg, route intraperitoneal
QUANTITY: concentration at 4 h (ng/mL)
Respond numerically; units are ng/mL and should not be typed.

Before answering, review these 5 worked examples.
- SMILES_NOTATION: "O=S(=O)(Nc1ccncc1Nc1cccc(Br)c1)C(F)(F)F"
  OBSERVED_RESULT: 300
- SMILES_NOTATION: "CS(=O)(=O)Nc1ccncc1Nc1cccc(Cl)c1"
  OBSERVED_RESULT: 260
- SMILES_NOTATION: "Cc1ccc(Nc2cnccc2NS(=O)(=O)C(F)(F)F)cc1Br"
  OBSERVED_RESULT: 170
- SMILES_NOTATION: "O=S(=O)(Nc1ccncc1Nc1ccc(Cl)cc1)C(F)(F)F"
  OBSERVED_RESULT: 4610
- SMILES_NOTATION: "O=S(=O)(Nc1ccncc1Nc1ccc(F)c(Br)c1)C(F)(F)F"
  OBSERVED_RESULT: 11400

Now consider a different molecule.
Input: Would you kindly share the measured concentration at 4 h for O=S(=O)(Nc1ccncc1Nc1cccc(Cl)c1)C(F)(F)F ?
Output: 560
